src = ChEMBL document CHEMBL5036331

Assay: Aqueous solubility of the compound at pH 6.5 for 24 hrs by HPLC-MS/MS
Assay type: physicochemical
# label = yes (1) if solubility at 24 h >= 20 µg/mL else no (0)

COc1cc(F)ccc1-c1nc(Nc2cc(F)cc(CS(C)(=N)=O)c2)ncc1F (stereo in doubt; 9) ... yes (1)
COc1cc(F)ccc1-c1cc(Nc2cc(CS(C)(=N)=O)ccn2)ncn1 (stereo not given) ... no (0)
COc1cc(F)ccc1-c1nc(Nc2cc(F)cc(CS(=N)(=O)CCCN)c2)ncc1F (stereo not given) ... yes (1)
COc1cc(F)ccc1-c1nc(Nc2cc(F)cc(CN)c2)ncc1F ... no (0)
COc1cc(F)ccc1-c1ncnc(Nc2cccc(CS(C)(=N)=O)c2)n1 (stereo not given) ... yes (1)
COc1cc(F)ccc1-c1nc(Nc2cc(F)cc(CS(C)(=N)=N)c2)ncc1F ... yes (1)
COc1cc(CS(C)(=N)=O)cc(Nc2ncc(F)c(-c3ccc(F)cc3OC)n2)c1 (stereo not given) ... no (0)
COc1cc(F)ccc1-c1nc(Nc2cc(F)c(F)c(CS(C)(=O)=NC#N)c2)ncc1F (stereo not given) ... no (0)
COc1cc(F)ccc1-c1nc(Nc2cc(F)cc(CS(=O)(CCCO)=NC#N)c2)ncc1F (stereo not given) ... no (0)
COc1cc(F)ccc1-c1nc(Nc2cncc(CS(C)(=N)=O)c2)ncc1F (stereo not given) ... yes (1)
